So I've got a bunch of compounds here, and I need their URIC ACID values.
- Species: Rattus norvegicus
- ASSAY SUMMARY: DrugMatrix - Regimen: Daily Repeat
- Format: toxicity, organism-based, Sprague-Dawley
- Parameters: regimen Daily Repeat, gender Male, age 6-8 weeks
- CONDITION SET: in vivo, po, 0 mg/kg, 120 h, tissue Plasma, route oral GAVAGE, dose level Control, time 5 day, vehicle .5 % CMC
Numbers only, in mg/dL.

Qu. Suppose we examine the compound Cc1cnc(C(=O)NCCc2ccc(S(=O)(=O)NC(=O)NC3CCCCC3)cc2)cn1 [GLIPIZIDE] ; what URIC ACID value has been reported?
Ans. 1.5

Quick request: URIC ACID for each listed item, please.
1. CC(C)(Sc1cc(C(C)(C)C)c(O)c(C(C)(C)C)c1)Sc1cc(C(C)(C)C)c(O)c(C(C)(C)C)c1
2. CCOC(=O)[C@H](CCc1ccccc1)N[C@@H](C)C(=O)N1Cc2ccccc2C[C@H]1C(=O)O
3. COc1ccc(/C=C/C(=O)Nc2ccccc2C(=O)O)cc1OC

Ans.
1. 1.83
2. 1.5
3. 1.83

====

So I've got a bunch of compounds here, and I need their TOTAL BILIRUBIN values.
- Organism: Rattus norvegicus
- ASSAY SUMMARY: DrugMatrix - Regimen: Daily Repeat
- Format: toxicity, organism-based, Sprague-Dawley
- Set-up: regimen Daily Repeat, gender Male, age 6-8 weeks
- CONDITION SET: in vivo, po, 0 mg/kg, 120 h, tissue Plasma, route oral GAVAGE, dose level Control, time 5 day, vehicle 100 % WATER
Provide a numeric answer, followed by its unit.

Previously resolved entries follow.
Qu. Suppose we examine the compound Nc1ccc(S(=O)(=O)Nc2ncccn2)cc1 ; what TOTAL BILIRUBIN value has been reported?
Ans. 0.72 mg/dL

Qu. Suppose we examine the compound CCN[C@@H](C)Cc1cccc(C(F)(F)F)c1 ; what TOTAL BILIRUBIN value has been reported?
Ans. 0.72 mg/dL

Qu. Suppose we examine the compound CC(C)(C)NC[C@H](O)COc1nsnc1N1CCOCC1 ; what TOTAL BILIRUBIN value has been reported?
Ans. 0.22 mg/dL

Qu. Suppose we examine the compound CCCc1nn(C)c2c(=O)[nH]c(-c3cc(S(=O)(=O)N4CCN(C)CC4)ccc3OCC)nc12 ; what TOTAL BILIRUBIN value has been reported?
Ans. 0.15 mg/dL

Quick request: TOTAL BILIRUBIN for each listed item, please.
1. CN1C2CCCC1CC(NC(=O)c1nn(C)c3ccccc13)C2 (configuration not stated)
2. OCCO
3. CC[C@H]1OC(=O)[C@H](C)[C@@H](O[C@H]2C[C@@](C)(OC)[C@@H](O)[C@H](C)O2)[C@H](C)[C@@H](O[C@@H]2O[C@H](C)C[C@H](N(C)C)[C@H]2O)[C@](C)(O)C[C@@H](C)CN(C)[C@H](C)[C@@H](O)[C@]1(C)O
4. CC[C@H]1OC(=O)[C@H](C)[C@@H](O[C@H]2C[C@@](C)(OC)[C@@H](O)[C@H](C)O2)[C@H](C)[C@@H](O[C@@H]2O[C@H](C)C[C@H](N(C)C)[C@H]2O)[C@](C)(OC)C[C@@H](C)C(=O)[C@H](C)[C@@H](O)[C@]1(C)O

Ans.
1: 0.22 mg/dL; 2: 0.15 mg/dL; 3: 0.2 mg/dL; 4: 0.15 mg/dL

====

- Species on record: Rattus norvegicus
- ASSAY SUMMARY: DrugMatrix - Regimen: Daily Repeat
- Format: toxicity, organism-based, Sprague-Dawley
- Set-up: regimen Daily Repeat, gender Male, age 6-8 weeks
- CONDITION SET: in vivo, po, 80 mg/kg, 120 h, tissue Blood, route oral GAVAGE, dose level Low, time 5 day, vehicle .5 % CMC
RESULT TYPE: ABSOLUTE BASOPHIL (cells/µL)
One number for each entry, in cells/µL.

Qu. Suppose we examine the compound O=c1cc(-c2ccccc2)oc2ccc3ccccc3c12 ; what ABSOLUTE BASOPHIL value has been reported?
Ans. 80

====

So I've got a bunch of compounds here, and I need their ABSOLUTE EOSINOPHIL values.
- Species on record: Rattus norvegicus
- ASSAY SUMMARY: DrugMatrix - Regimen: Daily Repeat
- Assay type: toxicity, organism-based, Sprague-Dawley
- Parameters: regimen Daily Repeat, gender Male, age 6-8 weeks
- CONDITION SET: in vivo, po, 0 mg/kg, 2184 h, tissue Blood, route oral GAVAGE, dose level Control, time 91 day, vehicle .5 % CMC
Numbers only, in cells/µL.

Qu. Suppose we examine the compound Clc1cc2c(cc1Cl)Oc1cc(Cl)c(Cl)cc1O2 ; what ABSOLUTE EOSINOPHIL value has been reported?
Ans. 70

Next item in the queue.
Qu. Suppose we examine the compound O=c1cc(-c2ccccc2)oc2ccc3ccccc3c12 ; what ABSOLUTE EOSINOPHIL value has been reported?
Ans. 70

====

- Species on record: Rattus norvegicus
- ASSAY SUMMARY: DrugMatrix - Regimen: Daily Repeat
- Format: toxicity, organism-based, Sprague-Dawley
- Parameters: regimen Daily Repeat, gender Male, age 6-8 weeks
- CONDITION SET: in vivo, po, 0 mg/kg, 120 h, tissue Blood, route oral GAVAGE, dose level Control, time 5 day, vehicle .5 % CMC
So I've got a bunch of compounds here, and I need their ERYTHROCYTE COUNT values.
Answers are plain numbers, in x10E6/uL.

Previously resolved entries follow.
Qu. Suppose we examine the compound C[C@@H]1CC[C@H]2[C@@H](C)C(=O)O[C@@H]3O[C@@]4(C)CC[C@@H]1[C@]32OO4 [ARTEMISININ] ; what ERYTHROCYTE COUNT value has been reported?
Ans. 5.52

Qu. Suppose we examine the compound COc1ccc(/C=C/C(=O)Nc2ccccc2C(=O)O)cc1OC ; what ERYTHROCYTE COUNT value has been reported?
Ans. 5.78

Quick request: ERYTHROCYTE COUNT for each listed item, please.
1. CC(C)(Sc1cc(C(C)(C)C)c(O)c(C(C)(C)C)c1)Sc1cc(C(C)(C)C)c(O)c(C(C)(C)C)c1 [PROBUCOL]
2. COc1ccccc1OCC(O)COC(N)=O (stereo not drawn) [METHOCARBAMOL]

Ans.
[5.78, 5.52]

====

- Organism: Rattus norvegicus
- ASSAY SUMMARY: DrugMatrix - Regimen: Daily Repeat
- Assay type: toxicity, organism-based, Sprague-Dawley
- Parameters: regimen Daily Repeat, gender Male, age 6-8 weeks
- CONDITION SET: in vivo, po, 0 mg/kg, 120 h, tissue Blood, route oral GAVAGE, dose level Control, time 5 day, vehicle 100 % SALINE
So I've got a bunch of molecules here, and I need their MEAN CORPUSCULAR HEMOGLOBIN CONCENTRATION values.
Answers are plain numbers, in G/DL.

Qu. Suppose we examine the molecule Oc1ccccc1O ; what MEAN CORPUSCULAR HEMOGLOBIN CONCENTRATION value has been reported?
Ans. 39.03

Qu. Suppose we examine the molecule CC(=O)OCC(CCn1cnc2cnc(N)nc21)COC(C)=O ; what MEAN CORPUSCULAR HEMOGLOBIN CONCENTRATION value has been reported?
Ans. 39.07

Qu. Suppose we examine the molecule CCCc1nn(C)c2c(=O)[nH]c(-c3cc(S(=O)(=O)N4CCN(C)CC4)ccc3OCC)nc12 ; what MEAN CORPUSCULAR HEMOGLOBIN CONCENTRATION value has been reported?
Ans. 39.07

Next item in the queue.
Qu. Suppose we examine the molecule Cc1cc(CC(=O)O)n(C)c1C(=O)c1ccc(Cl)cc1 [ZOMEPIRAC] ; what MEAN CORPUSCULAR HEMOGLOBIN CONCENTRATION value has been reported?
Ans. 39.03

====

- Organism: Rattus norvegicus
- ASSAY SUMMARY: DrugMatrix - Regimen: Daily Repeat
- Type: toxicity, organism-based, Sprague-Dawley
- Design: regimen Daily Repeat, gender Male, age 6-8 weeks
- CONDITION SET: in vivo, po, 0 mg/kg, 72 h, tissue Plasma, route oral GAVAGE, dose level Control, time 3 day, vehicle .5 % CMC
RESULT TYPE: BLOOD UREA NITROGEN (mg/dL)
Numbers only, in mg/dL.

Previously resolved entries follow.
Qu. Suppose we examine the compound Nc1cccc(Cl)c1 ; what BLOOD UREA NITROGEN value has been reported?
Ans. 16.67

Qu. Suppose we examine the compound CC(C)(Sc1cc(C(C)(C)C)c(O)c(C(C)(C)C)c1)Sc1cc(C(C)(C)C)c(O)c(C(C)(C)C)c1 ; what BLOOD UREA NITROGEN value has been reported?
Ans. 17.67

Qu. Suppose we examine the compound COc1ccc(/C=C/C(=O)Nc2ccccc2C(=O)O)cc1OC ; what BLOOD UREA NITROGEN value has been reported?
Ans. 17.67

Qu. Suppose we examine the compound C=C(CC)C(=O)c1ccc(OCC(=O)O)c(Cl)c1Cl ; what BLOOD UREA NITROGEN value has been reported?
Ans. 15

Qu. Suppose we examine the compound CN1C(=O)CN=C(c2ccccc2)c2cc(Cl)ccc21 ; what BLOOD UREA NITROGEN value has been reported?
Ans. 15

Qu. Suppose we examine the compound C[C@]12C/C(=C/O)C(=O)C[C@@H]1CC[C@@H]1[C@@H]2CC[C@@]2(C)[C@H]1CC[C@]2(C)O ; what BLOOD UREA NITROGEN value has been reported?
Ans. 16.17

Qu. Suppose we examine the compound CC(=O)O[C@]1(C(C)=O)CC[C@H]2[C@@H]3C=C(Cl)C4=CC(=O)[C@@H]5C[C@@H]5[C@]4(C)[C@H]3CC[C@@]21C [CYPROTERONE ACETATE] ; what BLOOD UREA NITROGEN value has been reported?
Ans. 17.33

Qu. Suppose we examine the compound CC(C(=O)O)c1ccc(-c2ccccc2)c(F)c1 (stereo not given) ; what BLOOD UREA NITROGEN value has been reported?
Ans. 17.67

Quick request: BLOOD UREA NITROGEN for each listed item, please.
1. C[C@@H]1CC[C@H]2[C@@H](C)C(=O)O[C@@H]3O[C@@]4(C)CC[C@@H]1[C@]32OO4
2. C[C@@H](O)[C@H]1C(=O)N2C(C(=O)O)=C(S[C@@H]3CN[C@H](C(=O)N(C)C)C3)[C@H](C)[C@H]12
3. Clc1cc2c(cc1Cl)Oc1cc(Cl)c(Cl)cc1O2
4. CC[C@]1(O)CC[C@H]2[C@@H]3CCC4=CCCC[C@@H]4[C@H]3CC[C@@]21C
5. CO[C@H]1C[C@@H]2CC[C@@H](C)[C@@](O)(O2)C(=O)C(=O)N2CCCC[C@H]2C(=O)O[C@H]([C@H](C)C[C@@H]2CC[C@@H](O)[C@H](OC)C2)CC(=O)[C@H](C)/C=C(\C)[C@@H](O)[C@@H](OC)C(=O)[C@H](C)C[C@H](C)/C=C/C=C/C=C/1C
6. CCOC(=O)[C@H](CCc1ccccc1)N[C@@H](C)C(=O)N1Cc2ccccc2C[C@H]1C(=O)O
7. Cc1cnc(C(=O)NCCc2ccc(S(=O)(=O)NC(=O)NC3CCCCC3)cc2)cn1 [GLIPIZIDE]

Ans.
17.33
17.67
15
14.5
16
17.33
17.33
